tested on: PC-9 (KRAS wild type human lung adenocarcinoma cell line); test: KRAS 3D-Cell Proliferation Assay, PC-9 (Example 503); format: cell-based; conditions: 168 h, PC-9 3D culture, 7 days, CellTiter-Glo 3D, read-out: Prolif PC9 3D ATP IC50
pIC50: −log10 of the molar value.
Catalogue of compounds with associated pIC50

- compound: "CCc1cccc2cc(O)cc(-c3nc4c5c(nc(OC[C@@]67CCCN6C[C@H](F)C7)nc5c3F)N3C[C@H]5CC[C@H](N5)[C@H]3[C@H](C)O4)c12 [Compound 10]"
  operator: "="
  pIC50: 5.18
- compound: "Cc1cc(-c2nc3c4c(nc(OC[C@@]56CCCN5C[C@H](F)C6)nc4c2F)N2C[C@H]4CC[C@H](N4)[C@H]2[C@H](C)O3)c(F)c(N)c1F [Compound 18]"
  operator: "="
  pIC50: 5.10
- compound: "C#Cc1cccc2cc(O)cc(-c3nc4c5c(nc(OC[C@@]67CCCN6C[C@H](F)C7)nc5c3F)N3C[C@H]5CC[C@H](CN5CC5COC5)[C@H]3CO4)c12 [Compound 51]"
  operator: "="
  pIC50: 4.71
- compound: "C[C@@H]1Oc2nc(-c3cc(N)nc4ccccc34)c(F)c3nc(OC[C@]45CCN4CC(F)(F)C5)nc(c23)N2C[C@H]3CC[C@H](N3)[C@@H]12 [Compound 79]"
  operator: "≤"
  pIC50: 4.70
- compound: "C[C@@H]1Oc2nc(-c3cccc4cccc(Cl)c34)c(F)c3nc(OC[C@@]45CCCN4CC4(CC4(F)F)C5)nc(c23)N2C[C@H]3CC[C@H](N3)[C@@H]12 (some centres unmarked) [Compound 27]"
  operator: "="
  pIC50: 5.56

Data provenance: patent US12338256B2
